Tested on: washed human erythrocytes
Type: cell-based
Settings: red cells of human, 3 h
Where a SMILES comes first, the peptide text is derived from it. [ ]: non-standard residue; d: D form. The star is where a group is joined. Myristoyl = CCCCCCCCCCCCCC(=O)*; 12Ado = NCCCCCCCCCCCC(=O)O; Orn = NCCC[C@H](N)C(=O)O
Recorded HC50, concentration causing 50% hemolysis compared to water for the following molecules

Reference set, count: 2
CCCCCCCCCCCCCC(=O)N[C@@H](CCCN)C(=O)N[C@@H](CCCN)C(=O)NCCCCCCCCCCCC(=O)N[C@@H](CCCN)C(N)=O [C14OOc12O] (Myristoyl-[Orn][Orn][12Ado][Orn]-NH2) = 14 ± 4 µM
CCCCC=CCCCCCCCC(=O)N[C@@H](CCCN)C(=O)N[C@@H](CCCN)C(=O)NCCCCCCCC(=O)N[C@@H](CCCN)C(N)=O = >100 µM

As a next step, examine the molecule that follows.
Here NCCC[C@H](NC(=O)CCCCCCCCCCCNC(=O)[C@H](CCCN)NC(=O)[C@@H](N)CCCN)C(N)=O [OOc12O] (H-[Orn][Orn][12Ado][Orn]-NH2) was tested on washed human erythrocytes, and its HC50, concentration causing 50% hemolysis compared to water came to >100 µM
